# Study system: hCatB (Homo sapiens, UniProt P07858)
Observation type: IC50 (µM)

C#CCNC(=O)[C@H](CC(C)(C)F)N[C@@H](c1ccc(-c2ccc(S(C)(=O)=O)cc2)cc1)C(F)(F)F ... 9.39
CC(C)(F)C[C@H](N[C@@H](c1ccc(-c2ccc(S(C)(=O)=O)cc2)cc1)C(F)(F)F)C(=O)NC1(C#N)CC1 [ODN, reference compound] ... 0.0626

* * *

Catalogue of pIC50 values
# Study system: hCatV (Homo sapiens, UniProt O60911)
# Sequence (O60911 114-334): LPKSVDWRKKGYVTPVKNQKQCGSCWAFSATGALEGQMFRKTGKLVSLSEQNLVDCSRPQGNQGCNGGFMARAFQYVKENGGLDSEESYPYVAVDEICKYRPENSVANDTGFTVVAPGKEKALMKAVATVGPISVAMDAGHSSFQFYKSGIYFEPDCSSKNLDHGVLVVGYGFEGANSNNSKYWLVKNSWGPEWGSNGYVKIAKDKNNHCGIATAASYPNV
# Protocol: In vitro inhibition of purified human Cathepsin V (Z-FR-AMC)
# Assay type: biochemical
# Measurement conditions: 30 min incubation with inhibitor, mean ± SD, triplicate
pIC50: −log10 of the molar value.
Observation type: pIC50

C#CC(C)NC(=O)[C@H](CC(C)(C)F)N[C@@H](c1ccc(-c2ccc(S(C)(=O)=O)cc2)cc1)C(F)(F)F (mixture of isomers) ... 4.34
CC(C)(F)C[C@H](N[C@@H](c1ccc(-c2ccc(S(C)(=O)=O)cc2)cc1)C(F)(F)F)C(=O)NCC#CBr ... 7.79
CC(C)(F)C[C@H](N[C@@H](c1ccc(-c2ccc(S(C)(=O)=O)cc2)cc1)C(F)(F)F)C(=O)NC1(C#N)CC1 [ODN, reference compound] ... 6.22
CC(C)(F)C[C@H](N[C@@H](c1ccc(-c2ccc(S(C)(=O)=O)cc2)cc1)C(F)(F)F)C(=O)NCC#N [Compound 2, reference compound] ... 6.04
